Data credit: patent US20170002011A1

# pKi values compiled below
# tested.target: CCR9 (Homo sapiens, UniProt P51686)
# Sequence (P51686 whole entry): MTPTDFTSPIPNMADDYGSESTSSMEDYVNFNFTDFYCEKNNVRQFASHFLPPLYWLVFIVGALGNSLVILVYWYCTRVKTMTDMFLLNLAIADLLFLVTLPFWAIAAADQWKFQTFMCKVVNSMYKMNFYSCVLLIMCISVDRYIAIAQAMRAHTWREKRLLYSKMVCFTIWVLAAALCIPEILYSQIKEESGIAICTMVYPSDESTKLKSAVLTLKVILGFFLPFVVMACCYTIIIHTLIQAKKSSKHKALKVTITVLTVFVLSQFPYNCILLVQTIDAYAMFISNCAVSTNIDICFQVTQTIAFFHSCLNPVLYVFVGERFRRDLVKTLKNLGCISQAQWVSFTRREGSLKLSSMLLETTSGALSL
# assay.procedure: FLIPR calcium flux assay using hCCR9 over expressed cells (TECK stimulation)
# Type: cell-based
# Parameters: expressed in transfected cells; host or cells: Chem-1 cells overexpressing hCCR9
# test.context: Chem1-hCCR9 overexpressing cells; Ki determined from IC50 of TECK-induced intracellular calcium increase
pKi: −log10 of the molar value.
metric: pKi

Cc1cc2c(C#N)ccc(NS(=O)(=O)c3ccc(C(C)(C)C)cc3)n2n1 [Compound 95] : 6.96
Cn1nccc1-c1cc2c(C#N)ccc(NS(=O)(=O)c3ccc(C(C)(C)C)cc3)n2n1 [Compound 152] : 6.90
CC(C)n1cc(-c2cc3c(Cl)ccc(NS(=O)(=O)c4ccc(C(C)(C)C)cc4)n3n2)cn1 [Compound 186] : 7.17
CC(C)(C)c1ccc(S(=O)(=O)Nc2ccc(C#N)c3cc(-c4cccnc4)nn23)cc1 [Compound 149] : 6.80
Cc1cc2nccc(NS(=O)(=O)c3ccc(C(C)(C)C)cc3)n2n1 [Compound 3] : 5.84
CC(C)(C)c1ccc(S(=O)(=O)Nc2ccc(C#N)c3cc(-c4cncc(F)c4)nn23)cc1 [Compound 156] : 6.97
CC(C)(C)c1ccc(S(=O)(=O)Nc2ccc(Cl)c3cc(-c4ccc[n+]([O-])c4)nn23)cc1 [Compound 111] : 6.72
CC(C)(C)c1ccc(S(=O)(=O)Nc2ccc(Cl)c3cc(-c4cnco4)nn23)cc1 [Compound 169] : 6.46
COc1cncc(-c2cc3c(C#N)ccc(NS(=O)(=O)c4ccc(C(C)(C)C)cc4)n3n2)c1 [Compound 161] : 6.90
CC(C)(C)c1ccc(S(=O)(=O)Nc2ccnc3cc(C4CC4)nn23)cc1 [Compound 37] : 5.71
Cc1c(-c2cc3c(C#N)ccc(NS(=O)(=O)c4ccc(C(C)(C)C)cc4)n3n2)cnn1C [Compound 190] : 6.94
